FYI, the data here is from patent US20240024273A1.

# Assay Remarks: Phase 1 clinical study: plasma pharmacokinetics of prodrug and ibuprofen
# Assay type: in vivo, human
# Measurement Setup: human, plasma, topical or ocular, 140 mg, Day 1; 140 mg topical; read-out: prodrug AUC0-12
Measured Quantity: AUC0-12 (ng·h/mL)

> print(dat)
                                   compound  value.measured
1  CCN(CC)CCOC(=O)C(C)c1ccc(CC(C)C)cc1 (stereo not shown)           0.478

====

# Assay Remarks: Phase 1 clinical study: plasma pharmacokinetics of prodrug and ibuprofen
# Type: in vivo, human
# Measurement Setup: human, plasma, topical or ocular, 280 mg, Day 1; 280 mg topical; read-out: prodrug Cmax
Measured Quantity: Cmax (ng/mL)

> print(dat)
                                   compound  value.measured
1  CCN(CC)CCOC(=O)C(C)c1ccc(CC(C)C)cc1 (stereo not shown)           0.233

====

# Assay Remarks: 28-day GLP repeated dermal dose toxicity and toxicokinetics study
# Parameters: species or system Beagle dogs
# Measurement Setup: beagle, dog, in vivo, topical or ocular, 28-day dermal; read-out: NOAEL (not attained; ulcers at application site at lowest dose)
Measured Quantity: NOAEL at 28 days

> print(dat)
                                   molecule  measured.quantity    value.measured
1  CCN(CC)CCOC(=O)C(C)c1ccc(CC(C)C)cc1 (stereo not shown)   NOAEL at 28 days  < 12.4 mg/kg/day

====

# Assay Remarks: Phase 1 clinical study: plasma pharmacokinetics of prodrug and ibuprofen
# Assay type: in vivo, human
# Measurement Setup: human, plasma, topical or ocular, 70 mg, Day 1; 70 mg topical; read-out: prodrug Tmax, median (range)
Measured Quantity: Tmax (h)

> print(dat)
                                   compound  measured.quantity  value.measured
1  CCN(CC)CCOC(=O)C(C)c1ccc(CC(C)C)cc1 (stereo not shown)               Tmax              10

====

# Assay Remarks: Acute maximum tolerated dose study, dermal
# Design: species or system Beagle dogs
# Measurement Setup: beagle, dog, in vivo, topical or ocular; dermal application
Measured Quantity: MTD

> print(dat)
                                   molecule  value.measured
1  CCN(CC)CCOC(=O)C(C)c1ccc(CC(C)C)cc1 (stereo not shown)      ≥ 50 mg/kg

====

# Assay Remarks: 28-day GLP repeated dermal dose toxicity and toxicokinetics study
# Set-up: species or system Rats
# Measurement Setup: both sexes, rat, in vivo, topical or ocular; 28-day dermal; male and female; read-out: systemic NOAEL
Measured Quantity: NOAEL at 28 days (mg/kg/day)

> print(dat)
                                   compound  value.measured
1  CCN(CC)CCOC(=O)C(C)c1ccc(CC(C)C)cc1 (stereo not shown)             100

====

# Assay Remarks: Phase 1 clinical study: plasma pharmacokinetics of prodrug and ibuprofen
# Assay type: in vivo, human
# Measurement Setup: human, plasma, topical, 70 mg, Day 1; 70 mg spray; read-out: prodrug AUC0-12, geometric mean
Measured Quantity: AUC0-12

> print(dat)
                                   compound  measured.quantity  value.measured
1  CCN(CC)CCOC(=O)C(C)c1ccc(CC(C)C)cc1.Cl (stereo not shown)            AUC0-12   0.279 ng·h/mL

====

# Assay Remarks: Phase 1 clinical study: plasma pharmacokinetics of prodrug and ibuprofen
# Type: in vivo, human
# Measurement Setup: human, plasma, topical or ocular, 70 mg, Day 12; 70 mg b.i.d. topical; read-out: prodrug Cmax
Measured Quantity: Cmax (ng/mL)

> print(dat)
                                   molecule  value.measured
1  CCN(CC)CCOC(=O)C(C)c1ccc(CC(C)C)cc1 (stereo not shown)           0.162

====

# Assay Remarks: Phase 1 clinical study: plasma pharmacokinetics of prodrug and ibuprofen
# Type: in vivo, human
# Measurement Setup: human, plasma, topical or ocular, 35 mg, Day 1; 35 mg topical; read-out: prodrug AUC0-12
Measured Quantity: AUC0-12 (ng·h/mL)

> print(dat)
                                   compound  unit.annotation  value.measured
1  CCN(CC)CCOC(=O)C(C)c1ccc(CC(C)C)cc1 (stereo not shown)          ng·h/mL            0.34

====

# Assay Remarks: Phase 1 clinical study: plasma pharmacokinetics of prodrug and ibuprofen
# Type: in vivo, human
# Measurement Setup: human, plasma, topical or ocular, 70 mg, Day 12; 70 mg b.i.d. topical; read-out: prodrug AUClast
Measured Quantity: AUC(0-t)

> print(dat)
                                   molecule  value.measured
1  CCN(CC)CCOC(=O)C(C)c1ccc(CC(C)C)cc1 (stereo not shown)    1.49 ng·h/mL

====

# Assay Remarks: Phase 1 clinical study: plasma pharmacokinetics of prodrug and ibuprofen
# Format: in vivo, human
# Measurement Setup: human, plasma, topical or ocular, 140 mg, Day 1; 140 mg topical; read-out: prodrug AUClast
Measured Quantity: AUC(0-t) (ng·h/mL)

> print(dat)
                                   compound  value.measured
1  CCN(CC)CCOC(=O)C(C)c1ccc(CC(C)C)cc1 (stereo not shown)            1.45

====

# Assay Remarks: Phase 1 clinical study: plasma pharmacokinetics of prodrug and ibuprofen
# Format: in vivo, human
# Measurement Setup: human, plasma, topical or ocular, 17.5 mg, Day 1; 17.5 mg topical; read-out: prodrug Tmax, median (range)
Measured Quantity: Tmax (h)

> print(dat)
                                   molecule  value.measured
1  CCN(CC)CCOC(=O)C(C)c1ccc(CC(C)C)cc1 (stereo not shown)               8

====

# Assay Remarks: Phase 1 clinical study: plasma pharmacokinetics of prodrug and ibuprofen
# Type: in vivo, human
# Measurement Setup: human, plasma, topical or ocular, 17.5 mg, Day 1; 17.5 mg topical; read-out: prodrug Cmax
Measured Quantity: Cmax (ng/mL)

> print(dat)
                                   compound  unit.annotation  value.measured
1  CCN(CC)CCOC(=O)C(C)c1ccc(CC(C)C)cc1 (stereo not shown)            ng/mL           0.158

====

# Assay Remarks: Phase 1 clinical study: plasma pharmacokinetics of prodrug and ibuprofen
# Format: in vivo, human
# Measurement Setup: human, plasma, topical or ocular, 35 mg, Day 1; 35 mg topical; read-out: prodrug Cmax
# Description: Following a 5-day washout period, 2-(diethylamino)ethyl 2-(4-isobutylphenyl)propionate was administered b.i.d. during Days 6-11, and a morning dose only was administered to Day 12. […] The relative bioavailability of the single dose 70 mg topical application vs. 70 mg spray application was determined based on AUCtau, AUCinf and Cmax. The 90% confidence intervals (CIs) on the ratio of topical application vs. spray application were calculated.
Measured Quantity: Cmax (ng/mL)

> print(dat)
                                   molecule  unit.annotation  value.measured
1  CCN(CC)CCOC(=O)C(C)c1ccc(CC(C)C)cc1 (stereo not shown)            ng/mL          0.0862

====

# Assay Remarks: Phase 1 clinical study: plasma pharmacokinetics of prodrug and ibuprofen
# Assay type: in vivo, human
# Measurement Setup: human, plasma, topical or ocular, 35 mg, Day 12; 35 mg b.i.d. topical; read-out: prodrug Cmax
Measured Quantity: Cmax (ng/mL)

> print(dat)
                                   compound  unit.annotation  value.measured
1  CCN(CC)CCOC(=O)C(C)c1ccc(CC(C)C)cc1 (stereo not shown)            ng/mL           0.153

====

# Assay Remarks: Phase 1 clinical study: plasma pharmacokinetics of prodrug and ibuprofen
# Type: in vivo, human
# Measurement Setup: human, plasma, topical or ocular, 17.5 mg, Day 12; 17.5 mg b.i.d. topical; read-out: prodrug Cmax
Measured Quantity: Cmax (ng/mL)

> print(dat)
                                   compound  measured.quantity  value.measured
1  CCN(CC)CCOC(=O)C(C)c1ccc(CC(C)C)cc1 (stereo not shown)               Cmax           0.092

====

# Assay Remarks: 28-day GLP repeated dermal dose toxicity and toxicokinetics study
# Set-up: species or system Rats
# Measurement Setup: male, rat, in vivo, topical; 100 mg/kg/day; males; Day 28; read-out: AUC0-24 h
Measured Quantity: AUC(0-t) (µg·h/mL)

> print(dat)
                                   compound  measured.quantity  unit.annotation  value.measured
1  CCN(CC)CCOC(=O)C(C)c1ccc(CC(C)C)cc1 (stereo not shown)           AUC(0-t)          µg·h/mL             165
